Origin of values: ChEMBL document CHEMBL3991601

Record set of Kd for target or system cAMP-dependent protein kinase catalytic subunit gamma (Homo sapiens, UniProt P22612). Note: in the data inactive means no Kd found up to 30 µM.
The source made the active and inactive calls.

Past entries and their recorded results:
Cn1cc(-c2ccc3nnc(C(F)(F)c4ccc5ncccc5c4)n3n2)cn1 | > 30 µM (inactive)
Cc1c(F)cc(C(=O)NC2CC2)cc1-c1ccc(C(=O)NCC(C)(C)C)cn1 | 49.3 µM (active)
C1=C/COCc2cc(ccc2OCCN2CCCC2)Nc2nccc(n2)-c2cccc(c2)COC/1 | > 30 µM (inactive)

Please find the next compound below.
Q: Which Kd reading was recorded for the compound "CN1CCC(CNc2ccc3ncc(-c4cccc(OC(F)(F)F)c4)n3n2)CC1" ?
Ans: > 30 µM (inactive)

---

Experimental System: Tyrosine-protein kinase BTK (Homo sapiens); note: in the data inactive means no Kd found up to 30 µM
Sequence (Q06187 whole entry): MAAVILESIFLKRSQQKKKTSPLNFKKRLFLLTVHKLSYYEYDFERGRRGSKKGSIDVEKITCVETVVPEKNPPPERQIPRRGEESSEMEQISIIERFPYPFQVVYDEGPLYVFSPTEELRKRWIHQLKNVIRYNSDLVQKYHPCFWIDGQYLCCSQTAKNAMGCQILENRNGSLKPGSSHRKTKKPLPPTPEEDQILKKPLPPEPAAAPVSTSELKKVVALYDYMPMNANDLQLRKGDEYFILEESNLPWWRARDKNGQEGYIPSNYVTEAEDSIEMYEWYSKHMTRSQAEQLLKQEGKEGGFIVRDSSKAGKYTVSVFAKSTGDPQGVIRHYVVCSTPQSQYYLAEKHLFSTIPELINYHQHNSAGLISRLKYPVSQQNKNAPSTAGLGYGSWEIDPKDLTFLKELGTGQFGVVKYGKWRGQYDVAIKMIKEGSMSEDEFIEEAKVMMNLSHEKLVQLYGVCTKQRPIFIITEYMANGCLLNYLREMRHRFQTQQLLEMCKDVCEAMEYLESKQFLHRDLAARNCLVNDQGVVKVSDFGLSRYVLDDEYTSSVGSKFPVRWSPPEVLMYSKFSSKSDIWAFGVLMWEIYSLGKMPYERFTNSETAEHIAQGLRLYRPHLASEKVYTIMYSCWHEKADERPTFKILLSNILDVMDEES
Calls of active or inactive are those of the source.
The reply should be one of these categories: active, inactive

Examples with answers:
CC(=O)Nc1cccc(-n2c(=O)n(C3CC3)c(=O)c3c(Nc4ccc(I)cc4F)n(C)c(=O)c(C)c32)c1 [TRAMETINIB] | inactive
C=CC(=O)N1CCC(Oc2cc3c(Nc4ccc(Cl)c(Cl)c4F)ncnc3cc2OC)CC1 [POZIOTINIB] | active
COC(=O)[C@@]1(O)C[C@H]2O[C@]1(C)n1c3ccccc3c3c4c(c5c6ccccc6n2c5c31)C(=O)NC4 [K-252A] | active
COCCNCc1ccc(-c2cc3nccc(Oc4ccc(NC(=S)NC(=O)Cc5ccc(F)cc5)cc4F)c3s2)nc1 [GLESATINIB] | inactive
Cn1cc(-c2ccc(F)c(C(F)(F)F)c2)nc1C1CCN(c2ncnc3[nH]ncc23)CC1 [LY-2584702] | inactive

Q: Short answer needed: outcome of this test for C1=C/COCc2cc(ccc2OCCN2CCCC2)Nc2nccc(n2)-c2cccc(c2)COC/1 [PACRITINIB] ?
Ans: inactive

Q: I'd appreciate the recorded outcome for CNS(=O)(=O)Nc1nccc(Cc2c(C)c3ccc(Oc4ncccn4)cc3oc2=O)c1F [AVUTOMETINIB] from this test.
Ans: inactive

---

Experimental System: Protein kinase C alpha type (Homo sapiens); note: in the data inactive means no Kd found up to 30 µM
Calls of active or inactive are those of the source.
Just give me one of these, please: active, inactive

Example entries begin here.
Cc1cc(Nc2cc(N3CCN(C)CC3)nc(/C=C/c3ccccc3)n2)n[nH]1 | inactive
C=CC(=O)N1CCC(Oc2cc3c(Nc4ccc(Cl)c(Cl)c4F)ncnc3cc2OC)CC1 | inactive
O=C(O)[C@]1(Cc2cccc(Nc3nccs3)n2)CC[C@@H](Oc2cccc(Cl)c2F)CC1 | inactive
COc1cc(N2CCC(N3CCN(C)CC3)CC2)ccc1Nc1ncnc(Nc2ccccc2S(=O)(=O)C(C)C)n1 | inactive
CCc1cnn2c(NCc3ccc[n+]([O-])c3)cc(N3CCCC[C@H]3CCO)nc12 | inactive

Q: Dear colleague, could you share the recorded outcome for "CNC(=O)c1ccc(C)c(-n2c(C)cc(OCc3ccc(F)cc3F)c(Br)c2=O)c1" when you have a moment?
Ans: inactive

Q: Dear colleague, could you share the recorded outcome for "CCS(=O)(=O)N1CC(CC#N)(n2cc(-c3ncnc4[nH]ccc34)cn2)C1" when you have a moment?
Ans: active

Q: # lookup: test call for "CCn1c(-c2nonc2N)nc2c(C#CC(C)(C)O)ncc(OC[C@H]3CCCNC3)c21"
Ans: active

Q: What outcome does the record of this test show for "CC(C)Nc1cc(-c2c[nH]c(C(=O)N[C@H](CO)c3cccc(Cl)c3)c2)c(Cl)cn1" ?
Ans: inactive

Q: Identify the outcome logged in this assay for the molecule shown: "Cc1cc(-c2cc(O)ccc2Cl)cc2nnc(Nc3ccc(OCCN4CCCC4)cc3)nc12"
Ans: inactive

Q: Dear all, I need the recorded test outcome for "COc1cc2nccc(Oc3ccc(NC(=O)NC4CC4)c(Cl)c3)c2cc1C(N)=O" , thank you.
Ans: inactive
